biological target: single-chain tethered dimer of HIV protease (Human immunodeficiency virus 1, UniProt P04585); assay: biochemical; format: biochemical; design: fused on or other part: A second copy of the same protease unit is joined to the first by a short peptide tether, giving one polypeptide; conditions: read-out: HPLC K1; Table 2d; class symbols
As shown below, each of these molecules has a reported Ki value.

[
  {
    "molecule": "O=C1N(Cc2cccc(O)c2)C(Cc2ccccc2)C(O)C(O)C(Cc2ccccc2)N1Cc1ccc2ccccc2c1 (stereo not shown) [10K]",
    "Ki": "< 10 nM"
  },
  {
    "molecule": "O=C1NC(Cc2ccccc2)C(O)C(O)C(Cc2ccccc2)N1CC1CC1CO (stereo not shown) [Example 12N]",
    "Ki": "10 to 1000 nM"
  },
  {
    "molecule": "O=C1N(Cc2ccccc2)C(Cc2ccccc2)C(O)C(O)C(Cc2ccccc2)N1Cc1ccccc1 (stereo not shown) [Example 13Y]",
    "Ki": "> 1000 nM"
  },
  {
    "molecule": "O=C(Nc1cccc(CN2C(=O)N(Cc3cccc(NC(=O)OCc4ccccc4)c3)C(Cc3ccccc3)C(O)C(O)C2Cc2ccccc2)c1)OCc1ccccc1 (stereo not shown) [15E]",
    "Ki": "10 to 1000 nM"
  }
]

###

target: single-chain tethered dimer of HIV protease (Human immunodeficiency virus 1, UniProt P04585); assay: biochemical; assay type: biochemical
pKi: −log10 of the molar value.
measured-metric: pKi

[
  {
    "compound": "O=C1N(Cc2ccccc2Cl)C(Cc2ccccc2)C(O)C(O)C(Cc2ccccc2)N1Cc1ccccc1Cl (centres unmarked) [Example 6ZD]",
    "measured-metric": "pKi",
    "observed-result": "6.00 to 8.00"
  },
  {
    "compound": "O=C1N(Cc2ccc(Br)cc2)C(Cc2ccccc2)C(O)C(O)C(Cc2ccccc2)N1Cc1ccc(Br)cc1 (centres unmarked) [Example 6ZG]",
    "measured-metric": "pKi",
    "observed-result": "6.00 to 8.00"
  },
  {
    "compound": "O=C1N(Cc2cccc([N+](=O)[O-])c2)C(Cc2ccccc2)C(O)C(O)C(Cc2ccccc2)N1Cc1cccc([N+](=O)[O-])c1 (centres unmarked) [Example 6Z]",
    "measured-metric": "pKi",
    "observed-result": "> 8.00"
  },
  {
    "compound": "O=C1N(Cc2ccc(Cl)cc2)C(Cc2ccccc2)C(O)C(O)C(Cc2ccccc2)N1Cc1ccc(Cl)cc1 (centres unmarked) [Example 6U]",
    "measured-metric": "pKi",
    "observed-result": "> 8.00"
  },
  {
    "compound": "C=CCN1C(=O)N(Cc2ccccn2)C(Cc2ccccc2)C(O)C(O)C1Cc1ccccc1 (centres unmarked) [Example 5C]",
    "measured-metric": "pKi",
    "observed-result": "6.00 to 8.00"
  },
  {
    "compound": "O=C1N(CC=Cc2ccccc2)C(Cc2ccccc2)C(O)C(O)C(Cc2ccccc2)N1CC1CC1 (centres unmarked) [Example 4I]",
    "measured-metric": "pKi",
    "observed-result": "> 8.00"
  },
  {
    "compound": "O=C1N(Cc2cccc(OCc3ccccc3)c2)C(Cc2ccccc2)C(O)C(O)C(Cc2ccccc2)N1Cc1cccc(OCc2ccccc2)c1 (centres unmarked) [Example 5F]",
    "measured-metric": "pKi",
    "observed-result": "6.00 to 8.00"
  },
  {
    "compound": "O=C1N(Cc2ccc3ccccc3c2)C(Cc2ccccc2)C(O)C(O)C(Cc2ccccc2)N1Cc1ccc2ccccc2c1 (centres unmarked) [Example 3U]",
    "measured-metric": "pKi",
    "observed-result": "> 8.00"
  },
  {
    "compound": "CC(C)(C)CCN1C(=O)N(CCC(C)(C)C)C(Cc2ccccc2)C(O)C(O)C1Cc1ccccc1 (centres unmarked) [Example 3P]",
    "measured-metric": "pKi",
    "observed-result": "6.00 to 8.00"
  },
  {
    "compound": "C=CCN1C(=O)NC(Cc2ccccc2)C(O)C(O)C1Cc1ccccc1 (centres unmarked) [Example 5A]",
    "measured-metric": "pKi",
    "observed-result": "< 6.00"
  },
  {
    "compound": "O=C1N(Cc2c(F)c(F)c(F)c(F)c2F)C(Cc2ccccc2)C(O)C(O)C(Cc2ccccc2)N1Cc1c(F)c(F)c(F)c(F)c1F (centres unmarked) [Example 4J]",
    "measured-metric": "pKi",
    "observed-result": "< 6.00"
  },
  {
    "compound": "O=C1N(Cc2ccccc2)C(Cc2ccccc2)C(O)C(O)C(Cc2ccccc2)N1Cc1ccncc1 (centres unmarked) [Example 4B]",
    "measured-metric": "pKi",
    "observed-result": "> 8.00"
  },
  {
    "compound": "COC(=O)c1cccc(CN2C(=O)N(Cc3cccc(C(=O)OC)c3)C(Cc3ccccc3)C(O)C(O)C2Cc2ccccc2)c1 (centres unmarked) [Example 5T]",
    "measured-metric": "pKi",
    "observed-result": "> 8.00"
  },
  {
    "compound": "O=C1N(Cc2ccc3ccccc3c2)C(Cc2ccccc2)C(O)C(O)C(Cc2ccccc2)N1CC1CC1 (centres unmarked) [Example 4K]",
    "measured-metric": "pKi",
    "observed-result": "> 8.00"
  },
  {
    "compound": "N#Cc1ccc(CN2C(=O)N(Cc3ccc(C#N)cc3)C(Cc3ccccc3)C(O)C(O)C2Cc2ccccc2)cc1 (centres unmarked) [Example 5W]",
    "measured-metric": "pKi",
    "observed-result": "> 8.00"
  },
  {
    "compound": "O=C1N(Cc2cccc(Cl)c2)C(Cc2ccccc2)C(O)C(O)C(Cc2ccccc2)N1Cc1cccc(Cl)c1 (centres unmarked) [Example 6X]",
    "measured-metric": "pKi",
    "observed-result": "> 8.00"
  },
  {
    "compound": "C=CCN1C(=O)N(Cc2ccncc2)C(Cc2ccccc2)C(O)C(O)C1Cc1ccccc1 (centres unmarked) [Example 5E]",
    "measured-metric": "pKi",
    "observed-result": "6.00 to 8.00"
  },
  {
    "compound": "O=C1N(Cc2ccc(F)c(F)c2)C(Cc2ccccc2)C(O)C(O)C(Cc2ccccc2)N1Cc1ccc(F)c(F)c1 (centres unmarked) [Example 6S]",
    "measured-metric": "pKi",
    "observed-result": "> 8.00"
  },
  {
    "compound": "O=C1N(Cc2ccc(CO)cc2)C(Cc2ccccc2)C(O)C(O)C(Cc2ccccc2)N1Cc1ccc(CO)cc1 (centres unmarked) [Example 5U]",
    "measured-metric": "pKi",
    "observed-result": "> 8.00"
  },
  {
    "compound": "CC(=O)Nc1cccc(CN2C(=O)N(Cc3cccc(NC(C)=O)c3)C(Cc3ccccc3)C(O)C(O)C2Cc2ccccc2)c1 (centres unmarked) [Example 6ZN]",
    "measured-metric": "pKi",
    "observed-result": "> 8.00"
  },
  {
    "compound": "COc1ccccc1CN1C(=O)N(Cc2ccccc2OC)C(Cc2ccccc2)C(O)C(O)C1Cc1ccccc1 (centres unmarked) [Example 6ZB]",
    "measured-metric": "pKi",
    "observed-result": "< 6.00"
  },
  {
    "compound": "CCOCCN1C(=O)N(CCOCC)C(Cc2ccccc2)C(O)C(O)C1Cc1ccccc1 (centres unmarked) [Example 3R]",
    "measured-metric": "pKi",
    "observed-result": "< 6.00"
  },
  {
    "compound": "COc1cccc(CN2C(=O)N(Cc3cccc(OC)c3)C(Cc3ccccc3)C(O)C(O)C2Cc2ccccc2)c1 (centres unmarked) [Example 6Q]",
    "measured-metric": "pKi",
    "observed-result": "> 8.00"
  },
  {
    "compound": "Cc1cccc(CN2C(=O)N(Cc3cccc(C)c3)C(Cc3ccccc3)C(O)C(O)C2Cc2ccccc2)c1 (centres unmarked) [Example 6ZA]",
    "measured-metric": "pKi",
    "observed-result": "> 8.00"
  },
  {
    "compound": "C=CCOc1cccc(CN2C(=O)N(Cc3cccc(OCC=C)c3)C(Cc3ccccc3)C(O)C(O)C2Cc2ccccc2)c1 (centres unmarked) [Example 5L]",
    "measured-metric": "pKi",
    "observed-result": "> 8.00"
  },
  {
    "compound": "O=C1N(Cc2ccccc2F)C(Cc2ccccc2)C(O)C(O)C(Cc2ccccc2)N1Cc1ccccc1F (centres unmarked) [Example 6P]",
    "measured-metric": "pKi",
    "observed-result": "6.00 to 8.00"
  },
  {
    "compound": "O=C1N(Cc2ccncc2)C(Cc2ccccc2)C(O)C(O)C(Cc2ccccc2)N1Cc1ccc2ccccc2c1 (centres unmarked) [Example 4Z]",
    "measured-metric": "pKi",
    "observed-result": "> 8.00"
  },
  {
    "compound": "O=C1N(CC2CCCC2)C(Cc2ccccc2)C(O)C(O)C(Cc2ccccc2)N1CC1CC1 (centres unmarked) [Example 4F]",
    "measured-metric": "pKi",
    "observed-result": "> 8.00"
  },
  {
    "compound": "Nc1cccc(CN2C(=O)N(Cc3cccc(N)c3)C(Cc3ccccc3)C(O)C(O)C2Cc2ccccc2)c1 (centres unmarked) [Example 6ZI]",
    "measured-metric": "pKi",
    "observed-result": "> 8.00"
  }
]
